Cited source for all entries: paper PMC4855620

Molecular target: HumRadA2 (humanised, monomeric RadA; surrogate for RAD51) (Pyrococcus furiosus)
Test: Isothermal titration calorimetry of peptides against HumRadA2
Assay type: binding
Conditions: ITC, 25 °C, Tris pH 7.5, 100 mM NaCl; low c-value conditions, ± = model-fitting error
Residues, ends and D or L forms follow the SMILES beside them.
observation_type: ΔH (kcal/mol)
Lab book: enter the figure in kcal/mol, no units written.

**Q:** Give the reported ΔH for this molecule. CC(=O)N[C@@H](Cc1ccccc1)C(=O)N[C@@H](CC(N)=O)C(=O)N[C@H](C(=O)N[C@@H](C)C(N)=O)[C@@H](C)O [FNTA] (Ac-FNTA-NH2)
**A:** -4.036

**Q:** Give the reported ΔH for this molecule. CC(=O)N[C@@H](Cc1ccccc1)C(=O)N[C@@H](Cc1c[nH]cn1)C(=O)N1CCC[C@H]1C(=O)N[C@@H](C)C(N)=O [FHPA] (Ac-FHPA-NH2)
**A:** -2.155

**Q:** Give the reported ΔH for this molecule. CC(=O)N[C@@H](Cc1ccccc1)C(=O)N[C@@H](Cc1c[nH]cn1)C(=O)N[C@H](C(=O)N[C@@H](C)C(N)=O)[C@@H](C)O [FHTA] (Ac-FHTA-NH2)
**A:** -2.388

**Q:** Give the reported ΔH for this molecule. CC(=O)N[C@@H](Cc1c[nH]c2ccccc12)C(=O)N[C@@H](Cc1c[nH]cn1)C(=O)N[C@H](C(=O)N[C@@H](C)C(N)=O)[C@@H](C)O [WHTA] (Ac-WHTA-NH2)
**A:** -2.768

**Q:** Give the reported ΔH for this molecule. CC(=O)N[C@@H](Cc1ccccc1)C(=O)N[C@@H](Cc1c[nH]cn1)C(=O)N[C@H](C(=O)NCC(N)=O)[C@@H](C)O [FHTG] (Ac-FHTG-NH2)
**A:** -5.518

**Q:** Give the reported ΔH for this molecule. CC(=O)N[C@@H](Cc1ccccc1)C(=O)N[C@@H](Cc1c[nH]cn1)C(=O)N[C@@H](C)C(=O)N[C@@H](C)C(N)=O [FHAA] (Ac-FHAA-NH2)
**A:** -7.948

**Q:** Give the reported ΔH for this molecule. CC(=O)N[C@@H](Cc1c[nH]c2ccccc12)C(=O)N[C@@H](Cc1c[nH]cn1)C(=O)N1CCC[C@H]1C(=O)N[C@@H](C)C(N)=O [WHPA] (Ac-WHPA-NH2)
**A:** -6.801

----------
Target: HumRadA2 (humanised, monomeric RadA; surrogate for RAD51) (Pyrococcus furiosus, UniProt O74036)
Assay: Isothermal titration calorimetry of peptides against HumRadA2
Format: binding
Conditions: ITC, 25 °C, MicroCal iTC200; peptide 2.5–5 mM in 200 mM Tris pH 7.5, 100 mM NaCl titrated into 64–83 μM HumRadA2; single-site model, stoichiometry fixed at 1.0 for weak binders; ± = fitting error
Residues, ends and D or L forms follow the SMILES beside them.
observation_type: pKd
When answering, recall that pKd equals minus log10 of the concentration in mol/L, and write that number alone.

**Q:** Give the reported pKd for this molecule. CC(=O)N[C@@H](Cc1ccccc1)C(=O)N[C@@H](Cc1c[nH]cn1)C(=O)N[C@@H](C)C(=O)N[C@@H](C)C(N)=O [FHAA] (Ac-FHAA-NH2)
**A:** 3.17

**Q:** Give the reported pKd for this molecule. CC(=O)N[C@@H](Cc1c[nH]c2ccccc12)C(=O)N[C@@H](Cc1c[nH]cn1)C(=O)N[C@H](C(=O)N[C@@H](C)C(N)=O)[C@@H](C)O [WHTA] (Ac-WHTA-NH2)
**A:** 4.03

**Q:** Give the reported pKd for this molecule. CC(=O)N[C@@H](Cc1ccccc1)C(=O)N[C@@H](Cc1c[nH]cn1)C(=O)N1CCC[C@H]1C(=O)N[C@@H](C)C(N)=O [FHPA] (Ac-FHPA-NH2)
**A:** 3.95

**Q:** Give the reported pKd for this molecule. CC(=O)N[C@@H](Cc1ccccc1)C(=O)N[C@@H](CC(N)=O)C(=O)N[C@H](C(=O)N[C@@H](C)C(N)=O)[C@@H](C)O [FNTA] (Ac-FNTA-NH2)
**A:** 3.21

**Q:** Give the reported pKd for this molecule. CC(=O)N[C@@H](Cc1ccccc1)C(=O)N[C@@H](Cc1c[nH]cn1)C(=O)N[C@H](C(=O)NCC(N)=O)[C@@H](C)O [FHTG] (Ac-FHTG-NH2)
**A:** 2.80

**Q:** Give the reported pKd for this molecule. CC[C@H](NC(=O)[C@@H](NC(=O)[C@H](Cc1c[nH]cn1)NC(=O)[C@H](Cc1ccccc1)NC(C)=O)[C@@H](C)O)C(N)=O [FHTU] (HELM PEPTIDE1{[ac].F.H.T.[Abu].[am]}$$$$V2.0)
**A:** 3.17

**Q:** Give the reported pKd for this molecule. CC(=O)N[C@@H](Cc1c[nH]c2ccccc12)C(=O)N[C@@H](Cc1c[nH]cn1)C(=O)N1CCC[C@H]1C(=O)N[C@@H](C)C(N)=O [WHPA] (Ac-WHPA-NH2)
**A:** 3.48
